A collection of sequences and their measured apparent KD of K4 kissing-loop reporter
- Tested on: K4 kissing-loop RNA reporter;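 note: bound reporter read as fluorescence of individual clusters on recovered sequencing chips by microscopy, with normalized cluster intensities fitted with a binding model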
- Test protocol: apparent KD of K4 kissing-loop reporter; higher = weaker reporter binding
- Assay conditions: Eterna round: R107; input ligand: theophylline 20 uM
The reply should be a number in nM, with the unit left off.

Any idea what apparent KD of K4 kissing-loop reporter was measured for AAUAAGCAUGGAAGGAGCGUAGUCCAGUGAUGUUGGAGUUAAAUACCAGUGAUGUUGGUUAUACAGGUAGGUCGCCAUAAAGCUU [Exclusion Arginine B Gf 6] ?
83.2

Any idea what apparent KD of K4 kissing-loop reporter was measured for AAAGAUGCGUCGGCCGCCACUGUUGCCAGUGAUGUUGGCAUGUAGAUGCAGUGAUGUUGCGUUUUCAGGACCGGGACGUAAGAUG [5th] ?
246

Any idea what apparent KD of K4 kissing-loop reporter was measured for UGCCGGGCUGUACGUUACUUAAAUCGCGAUACCAGCGAUACAAUCCGCCCUUGGCAGCGCAGUGAUGUUGCGCGGUCAUUACGGG [theeternabot_exclusion_KL_Theo_A_27] ?
103

Any idea what apparent KD of K4 kissing-loop reporter was measured for AUGUACACGAUAGUGUACUCCUAGUGAUGUUAGGAUAUGCAGAUAUGCAGAAGGGACAAGUCAUCUGACAAUAGUCGGAUGACAA [FmnAX 10 #OpenEnded #K4Early] ?
114

Any idea what apparent KD of K4 kissing-loop reporter was measured for AAAUAGCUGACGUUGAGUGGGAGCCAGGCACGAGGACCGGUACGGCCGCCACUCGACUAGGUUUUCAGUGAUGUUGAAAAUUUAA [Exclusion Tryptophan A GF 5] ?
224

Any idea what apparent KD of K4 kissing-loop reporter was measured for GACGGGUUGCUGCUCAAUCCGUCGCAUGAUCGAGGACCGGUACGGCCGCCACUCGAGGCCAUGCCGUACGAGUGAUGUUCGUGCG [Xeerlaus] ?
388

Any idea what apparent KD of K4 kissing-loop reporter was measured for UUAAUAAUUCAAGGAUAUGUUUUCUAUUUCGAGUGAUGUUCGGAAUUAAUAAAUUUAAAAGAUUAUACAGAAGGUGAUAAAUAGU [Cynwulf-mod#2] ?
115

Any idea what apparent KD of K4 kissing-loop reporter was measured for GCUAUGGUAGGAAGGAGCGCUUACUCGUUAAUAAGAGUGAUGUUCGAUAACGAGUAUUUAUAGCAGGUAGGUCGCCUACUAUAGC [Arginine B K4 4] ?
242

Any idea what apparent KD of K4 kissing-loop reporter was measured for GGAUAGGACACGGCCGCCACUACCGAGGAUACUCGAAACAUUUCCUCAGAUGAGUGAUGUUCAUCUAGGACCGGGUGUCCUAUCG [KL-XTryp-B19 #analogue] ?
121

Any idea what apparent KD of K4 kissing-loop reporter was measured for AGAGUUAUGAGAGGAUAUGCGGCUAGUACUCAAAGAGUACUAGCAGCGGAGUGAUGUUCUGUGAAAGCAGAAGGUUCAUAACUCA [#07 K4 FMN B Same State] ?
907

Any idea what apparent KD of K4 kissing-loop reporter was measured for UGGAGUUGACGAAAAGUCAACUCCUGAGAUACCAGUGACGAAGGUCACCCUUGGCAGCUCACUGCUAGUGAUGUUGGAAGAUAAA [whbob_SS_Theo_A_w48] ?
2350

Any idea what apparent KD of K4 kissing-loop reporter was measured for UAAUAUCCGUCGGCCGCCACUCACCAGUGAUGUUGGAGGAGUGAUGUUCCACGAGUGAUGUUCGAGAGGACCGGGACGGACGAUG [6th] ?
108
